Source of measurements: the RNAGym collection of RNA variant scans (doi:10.7554/elife.80360)

B1: HDV Ribozyme (parent)
chain: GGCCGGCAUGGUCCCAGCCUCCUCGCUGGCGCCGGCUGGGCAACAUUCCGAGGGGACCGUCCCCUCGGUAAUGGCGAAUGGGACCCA

Variants of: B1
ASSAY PROCEDURE: self-cleavage, relative activity (ratio to wild type); higher = more cleavage; co-transcriptional
Rule: self-cleavage of 0.2 or more gives MET; anything lower gives NOT MET.

> print(dat)
        mut  classification
1  G5A C86U             MET

QUERY: Record G2A G40C ; criterion: self-cleavage no lower than 0.2. Met?
RESULT: NOT MET

QUERY: Record A45G G55A ; criterion: self-cleavage no lower than 0.2. Met?
RESULT: MET

QUERY: Record G17U C24G ; criterion: self-cleavage no lower than 0.2. Met?
RESULT: NOT MET

QUERY: Record G11C C64U ; criterion: self-cleavage no lower than 0.2. Met?
RESULT: MET

QUERY: Record C57A G68U ; criterion: self-cleavage no lower than 0.2. Met?
RESULT: MET

QUERY: Record C7A G38U ; criterion: self-cleavage no lower than 0.2. Met?
RESULT: NOT MET
